# Tested on: Mus musculus
# test_method_notes: Antinociceptive activity in Swiss albino mouse assessed as increase in tail-flick latency at 30 mg/kg, po measured up to 120 mins relative to untreated-control
# Format: functional, organism-based
# Parameters: dose 30 mg/kg
Activity calls are given as the source filed them. The calls are words filed in the database; no cut-off is given here.
Answer with one of the outcomes true = active, false = inactive

input: Which outcome was entered for the compound CC(C)C(=O)OC[C@H]1C[C@@H](Cl)C[C@@H](c2ccc3ccccc3c2)O1 (relative stereo) in this test?
output: true

input: What did this assay record as the result for CC[C@@H]1CCC[C@H](C(=O)O)O1 (racemic) ?
output: true

input: What call does the record list for OC[C@H]1C[C@@H](Cl)C[C@@H](c2cccc3ccccc23)O1 (relative stereo) ?
output: true

input: Which result was noted for this compound in the test: OC[C@H]1CCC[C@@H](c2cccc3ccccc23)O1 (relative stereo)
output: true

input: What classification did OC[C@H]1CCC[C@@H](c2ccc3ccccc3c2)O1 (relative stereo) end up with in this test?
output: true

input: Identify the outcome logged in this assay for the compound shown: `O=C(O)[C@H]1CCC[C@@H](c2ccc3ccccc3c2)O1`
output: true

input: Recorded test call requested for O=C(O)[C@H]1CCC[C@@H](c2cccc3ccccc23)O1 (relative stereo)
output: true

input: Recorded call for O=C(O)[C@H]1C[C@@H](Cl)C[C@@H](c2cccc3ccccc23)O1 (relative stereo) ?
output: false

input: Hi, sorry to bother you, what did the test record for CC(C)C(=O)OC[C@H]1C[C@@H](Cl)C[C@@H](c2cccc3ccccc23)O1 (relative stereo) ?
output: true

input: Would you mind telling me which call this test gave O=C(O)[C@H]1C[C@@H](Cl)C[C@@H](c2ccc3ccccc3c2)O1 (relative stereo) ?
output: true

input: In this assay, the call recorded for OC[C@H]1C[C@@H](Cl)C[C@@H](c2ccc3ccccc3c2)O1 (relative stereo) was what?
output: true

These data points were gathered from ChEMBL document CHEMBL2150887.
